- tgt: Sodium-dependent dopamine transporter (Rattus norvegicus, UniProt P23977)
- Sequence (P23977 whole entry): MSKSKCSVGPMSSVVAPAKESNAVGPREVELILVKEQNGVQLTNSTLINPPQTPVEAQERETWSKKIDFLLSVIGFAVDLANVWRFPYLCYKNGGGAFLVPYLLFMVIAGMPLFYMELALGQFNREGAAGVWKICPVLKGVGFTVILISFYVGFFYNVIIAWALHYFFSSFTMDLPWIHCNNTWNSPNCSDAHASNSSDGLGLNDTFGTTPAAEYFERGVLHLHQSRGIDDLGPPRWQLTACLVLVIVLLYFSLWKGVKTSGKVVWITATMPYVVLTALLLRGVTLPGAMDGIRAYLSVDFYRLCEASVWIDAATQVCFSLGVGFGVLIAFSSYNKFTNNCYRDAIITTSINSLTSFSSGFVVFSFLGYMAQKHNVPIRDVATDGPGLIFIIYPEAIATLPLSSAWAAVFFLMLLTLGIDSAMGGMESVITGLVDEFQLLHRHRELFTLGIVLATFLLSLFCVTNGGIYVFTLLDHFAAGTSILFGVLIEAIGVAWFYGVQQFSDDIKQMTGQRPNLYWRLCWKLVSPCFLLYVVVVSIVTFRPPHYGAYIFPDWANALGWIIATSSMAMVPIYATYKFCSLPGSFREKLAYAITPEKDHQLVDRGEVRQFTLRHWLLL
- assay-protocol: Binding affinity of compound on dopamine transporters of rat striated membranes using [3H]- mazindol.
- Type: cell membranes, Membrane
Strictly below 10 nM in Ki: Satisfied. Otherwise: Not satisfied.

[[record]]
compound = "CCC[C@H]1C(c2ccc(C)cc2)C[C@H]2CCC1N2C (stereo not given in full)"
answer_label = "Satisfied"

[[record]]
compound = "Cc1ccc([C@@H]2C[C@H]3CCC([C@@H]2c2ccccc2)N3C)cc1"
answer_label = "Satisfied"

[[record]]
compound = "CN1C2CC[C@@H]1C[C@@H](c1ccc(F)cc1)[C@H]2c1ccccc1"
answer_label = "Satisfied"

[[record]]
compound = "CCC[C@H]1C(c2ccc(F)cc2)C[C@H]2CCC1N2C (stereo not given in full)"
answer_label = "Satisfied"

[[record]]
compound = "CCCC[C@H]1C(c2ccc(C)cc2)C[C@H]2CCC1N2C (stereo not given in full)"
answer_label = "Satisfied"

[[record]]
compound = "CCC[C@H]1C2CC[C@H](C[C@H]1c1ccccc1)N2C"
answer_label = "Not satisfied"

[[record]]
compound = "CCC[C@H]1C2CC[C@H](C[C@H]1c1ccc(C)cc1)N2C"
answer_label = "Satisfied"

[[record]]
compound = "CN1C2CC[C@@H]1C[C@@H](c1ccccc1)[C@H]2c1ccccc1"
answer_label = "Not satisfied"

[[record]]
compound = "CCCC[C@H]1C2CC[C@H](C[C@H]1c1ccc(C)cc1)N2C"
answer_label = "Not satisfied"

[[record]]
compound = "CCC[C@H]1C(c2ccccc2)C[C@H]2CCC1N2C (stereo not given in full)"
answer_label = "Not satisfied"


---

- tgt: Sodium-dependent dopamine transporter (Rattus norvegicus)
- assay-protocol: Inhibitory activity on dopamine transporter of rat striated membranes using [3H]- mazindol.
result-type: IC50 (nM)

[[record]]
compound_smiles = "COC(=O)[C@@H]1C2CC[C@H](C[C@@H]1c1ccc(C)cc1)N2C"
result_type = "IC50"
test_value = 10.5


---

Listed here: items and their measured pKi.
- tgt: Sodium-dependent serotonin transporter (Rattus norvegicus)
- Sequence (P31652 whole entry): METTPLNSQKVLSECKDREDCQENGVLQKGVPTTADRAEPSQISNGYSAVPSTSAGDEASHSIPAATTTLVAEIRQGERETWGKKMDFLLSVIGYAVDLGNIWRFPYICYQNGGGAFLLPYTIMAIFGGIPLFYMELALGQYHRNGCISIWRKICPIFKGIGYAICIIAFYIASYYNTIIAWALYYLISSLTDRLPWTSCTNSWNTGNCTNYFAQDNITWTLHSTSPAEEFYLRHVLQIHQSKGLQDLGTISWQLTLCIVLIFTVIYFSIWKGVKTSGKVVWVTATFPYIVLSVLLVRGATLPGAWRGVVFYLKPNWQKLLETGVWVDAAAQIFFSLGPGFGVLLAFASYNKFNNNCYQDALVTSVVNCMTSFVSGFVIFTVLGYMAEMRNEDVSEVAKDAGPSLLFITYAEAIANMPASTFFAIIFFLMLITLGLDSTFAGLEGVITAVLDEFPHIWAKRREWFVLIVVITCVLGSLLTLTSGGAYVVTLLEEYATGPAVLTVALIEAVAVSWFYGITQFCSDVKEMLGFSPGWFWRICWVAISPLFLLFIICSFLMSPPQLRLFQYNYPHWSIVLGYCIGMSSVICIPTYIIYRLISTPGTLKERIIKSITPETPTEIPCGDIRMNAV
- assay-protocol: Binding affinity for Serotonin transporter was determined by [3H]5-HT (serotonin) uptake by striated synaptosomes
pKi: −log10 of the molar value.
result-type: pKi

[[record]]
compound = "Cc1ccc([C@@H]2C[C@H]3CCC([C@@H]2c2ccccc2)N3C)cc1"
test_value = 6.54

[[record]]
compound = "CCC[C@H]1C(c2ccc(C)cc2)C[C@H]2CCC1N2C (stereo partly drawn)"
test_value = 7.99

[[record]]
compound = "CCCC[C@H]1C2CC[C@H](C[C@H]1c1ccc(C)cc1)N2C"
test_value = 7.29

[[record]]
compound = "CCC[C@H]1C(c2ccccc2)C[C@H]2CCC1N2C (stereo partly drawn)"
test_value = 7.06

[[record]]
compound = "CCC[C@H]1C2CC[C@H](C[C@H]1c1ccc(F)cc1)N2C"
test_value = 7.00

[[record]]
compound = "CCC[C@H]1C(c2ccc(F)cc2)C[C@H]2CCC1N2C (stereo partly drawn)"
test_value = 7.66

[[record]]
compound = "CN1C2CC[C@@H]1CC(c1ccccc1)[C@@H]2c1ccccc1 (stereo partly drawn)"
test_value = 5.96

[[record]]
compound = "CCCC[C@H]1C(c2ccc(C)cc2)C[C@H]2CCC1N2C (stereo partly drawn)"
test_value = 7.82

[[record]]
compound = "Cc1ccc(C2C[C@H]3CCC([C@H]2c2ccccc2)N3C)cc1 (stereo partly drawn)"
test_value = 7.13

[[record]]
compound = "CN1C2CC[C@@H]1C[C@@H](c1ccc(F)cc1)[C@H]2c1ccccc1"
test_value = 6.91

[[record]]
compound = "CCC[C@H]1C2CC[C@H](C[C@H]1c1ccccc1)N2C"
test_value = 6.41

[[record]]
compound = "CCC[C@H]1C2CC[C@H](C[C@H]1c1ccc(C)cc1)N2C"
test_value = 7.30

[[record]]
compound = "CN1C2CC[C@@H]1C[C@@H](c1ccccc1)[C@H]2c1ccccc1"
test_value = 6.12

